Listed here: molecules with reported IC50 for UniProt P04626.
Sequence (P04626 whole entry): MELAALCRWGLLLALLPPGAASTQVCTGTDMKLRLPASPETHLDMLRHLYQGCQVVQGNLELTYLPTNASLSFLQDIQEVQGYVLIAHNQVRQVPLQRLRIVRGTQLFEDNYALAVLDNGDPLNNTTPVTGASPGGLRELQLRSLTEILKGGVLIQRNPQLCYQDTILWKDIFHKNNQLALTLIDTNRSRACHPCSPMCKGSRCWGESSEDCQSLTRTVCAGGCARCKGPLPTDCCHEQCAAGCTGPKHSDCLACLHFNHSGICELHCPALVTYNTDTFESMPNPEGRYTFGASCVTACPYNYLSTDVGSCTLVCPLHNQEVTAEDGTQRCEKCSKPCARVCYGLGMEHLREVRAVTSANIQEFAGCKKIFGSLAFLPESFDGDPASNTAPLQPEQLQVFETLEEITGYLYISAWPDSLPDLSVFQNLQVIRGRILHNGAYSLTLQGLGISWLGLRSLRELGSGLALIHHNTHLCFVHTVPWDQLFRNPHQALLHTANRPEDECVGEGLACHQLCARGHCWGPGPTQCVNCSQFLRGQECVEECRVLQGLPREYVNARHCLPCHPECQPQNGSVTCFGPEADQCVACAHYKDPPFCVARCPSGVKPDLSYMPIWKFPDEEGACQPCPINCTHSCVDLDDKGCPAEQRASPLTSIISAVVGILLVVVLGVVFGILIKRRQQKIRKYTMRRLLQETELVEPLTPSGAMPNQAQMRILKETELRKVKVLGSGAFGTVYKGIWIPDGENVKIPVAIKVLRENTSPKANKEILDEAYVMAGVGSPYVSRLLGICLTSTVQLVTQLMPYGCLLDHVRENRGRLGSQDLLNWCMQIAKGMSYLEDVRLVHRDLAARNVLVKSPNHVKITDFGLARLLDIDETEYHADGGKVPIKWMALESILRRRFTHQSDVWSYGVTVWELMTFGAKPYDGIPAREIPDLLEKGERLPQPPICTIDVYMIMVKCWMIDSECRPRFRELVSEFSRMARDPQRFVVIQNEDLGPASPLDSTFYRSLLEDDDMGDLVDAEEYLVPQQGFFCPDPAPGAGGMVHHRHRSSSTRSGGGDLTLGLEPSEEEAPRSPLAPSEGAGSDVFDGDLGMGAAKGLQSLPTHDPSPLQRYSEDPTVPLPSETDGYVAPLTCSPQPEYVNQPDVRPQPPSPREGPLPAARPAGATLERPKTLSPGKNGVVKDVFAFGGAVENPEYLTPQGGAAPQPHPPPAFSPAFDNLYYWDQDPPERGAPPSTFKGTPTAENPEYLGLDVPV
RECORDED_ENDPOINT: IC50 (µM)

Worked cases, IC50 given:
# MOLECULE, VALUE_UNITS, IC50
measured = [
    ("COc1cc2ncc(C#N)c(Nc3ccc(F)c(Cl)c3)c2cc1NC(=O)/C=C/C(C)N(C)C (stereo not given)", "µM", 11.8),
    ("C=CC(=O)Nc1ccc2ncc(C#N)c(Nc3cccc(Br)c3)c2c1", "µM", 1.63),
    ("CN(C)C/C=C/C(=O)Nc1cc2c(Nc3ccc(F)c(Cl)c3)c(C#N)cnc2cc1OC(F)(F)F", "µM", 4.13),
]

[I] CC#CC(=O)Nc1ccc2ncc(C#N)c(Nc3cccc(Br)c3)c2c1
[II] COC[C@@H]1CCCN1CC#CC(=O)Nc1ccc2ncc(C#N)c(Nc3cccc(Br)c3)c2c1
query: Pick one: I or II . Which has the bigger IC50 number? Write down the label attached to your selection.
result: I

Each recorded value in this set is attributed to ChEMBL document CHEMBL1145020.
